# key: entry, value: TGI
Tested on: NCI/ADR-RES ovarian
protocol text: NCI tumour cell line growth inhibition, 48 h

[[record]]
compound = "CC/C=C\\C[C@H](F)C/C=C1/C(=O)C=C[C@@H]1C/C=C\\CCCC(=O)O"
result = "> 32.5 µM"

[[record]]
compound = "O=C1c2cccc([N+](=O)[O-])c2C(=O)N1c1ncn[nH]1"
result = "> 100 µM"

[[record]]
compound = "Cc1cc2cc3c(cc2c(-c2ccc([N+](=O)[O-])cc2)n1)OCO3"
result = "> 100 µM"

[[record]]
compound = "COc1ccc(C(=O)c2sc(N(C)C)nc2-c2ccccc2)cc1"
result = "49.8 µM"

[[record]]
compound = "CC(C)NC(NC(C)C)=C(S(=O)(=O)C(F)(F)C(F)(F)C(F)(F)C(F)(F)F)S(=O)(=O)C(F)(F)C(F)(F)C(F)(F)C(F)(F)F"
result = "> 100 µM"


Value lookup for TGI; key = Cc1ccc([N+](=O)[O-])cc1S(=O)(=O)Nc1ccc(C2=NN(c3ccc([N+](=O)[O-])cc3[N+](=O)[O-])C(c3cccs3)C2)cc1 (stereo not drawn)
41.4 µM

Value lookup for TGI; key = "C[C@]12CC[C@H](OC(=O)Cc3ccc(N(CCCl)CCCl)cc3)CC1=CC[C@@H]1[C@@H]2CC[C@]2(C)C(=O)CC[C@@H]12"
> 100 µM

Value lookup for TGI; key = "COc1ccc2c(c1)C(=O)c1c-2n(CCCn2ccnc2)c(=O)c2cc([N+](=O)[O-])ccc12"
0.192 µM

====

System: UO-31 renal
protocol text: NCI tumour cell line growth inhibition, 48 h
observation type: TGI

[[record]]
molecule = "Cc1cc2cc3c(cc2c(-c2ccc([N+](=O)[O-])cc2)n1)OCO3"
target_or_test_system = "UO-31 renal"
result = "> 100 µM"

[[record]]
molecule = "C[N+](C)(C)CCCSc1nc2ccccc2[nH]1"
target_or_test_system = "UO-31 renal"
result = "> 100 µM"

[[record]]
molecule = "CC/C=C\\C[C@@H](O)C/C=C1/C(=O)C=C[C@H]1C/C=C\\CCCC(=O)OC"
target_or_test_system = "UO-31 renal"
result = "3.34 µM"

[[record]]
molecule = "O=C(N/N=C/C=C/c1ccccc1)[C@H](O)[C@@H](O)C(=O)N/N=C/C=C/c1ccccc1"
target_or_test_system = "UO-31 renal"
result = "> 100 µM"


Proceed to the following item.
Value lookup for TGI; key = COC(=O)/C=C(/C=C1/C(C#N)=C(N)N(c2ccc(Cl)cc2)C1(C)/C(=C/C(=O)OC)C(=O)OC)C(=O)OC (stereo not given)
> 100 µM

====

Tested on: UACC-257 melanoma
protocol text: NCI tumour cell line growth inhibition, 48 h
# key: entry, value: TGI

Use these answered entries as a reference point.
[[record]]
compound = "CNC(=O)C1CCc2nnc(-c3ccccc3)n21 (stereo not given)"
result = "> 100 µM"

[[record]]
compound = "Cc1ccc(NC(=O)CC(=O)n2nc(C)c(N=Nc3ccccc3C(=O)O)c2C)cc1"
result = "> 100 µM"

[[record]]
compound = "CS(=O)(=O)CCNCc1ccc(-c2ccc3ncnc(Nc4ccc(OCc5ccccc5)cc4)c3c2)o1"
result = "8.56 µM"

[[record]]
compound = "NC(=S)N1N=C2c3ccccc3CC[C@@H]2[C@@H]1c1ccccc1"
result = "56.3 µM"

[[record]]
compound = "C[C@]12CC[C@H](OC(=O)Cc3ccc(N(CCCl)CCCl)cc3)CC1=CC[C@@H]1[C@@H]2CC[C@]2(C)C(=O)CC[C@@H]12"
result = "> 100 µM"

[[record]]
compound = "CCCCCCCCCCCCN(CC(O)C(O)C(OC1OC(CO)C(O)C(O)C1O)C(O)CO)C(=O)CCCCCCCCCCC (stereo not given)"
result = "36.6 µM"

[[record]]
compound = "CN(C)c1ccc(/C=C2/NC(=S)NC2=O)cc1"
result = "> 100 µM"

[[record]]
compound = "Nc1cccc(S(=O)(=O)NCC(=O)O)c1"
result = "> 100 µM"


Value lookup for TGI; key = "CCOC(=O)c1c(NC(=O)c2cccs2)sc2c1CCC2"
> 100 µM

Value lookup for TGI; key = "c1ccc(-c2nc3ccccc3n3c(CN4CCCCC4)nnc23)cc1"
> 100 µM
